B1: library; numbered along this chain (parent)
chain: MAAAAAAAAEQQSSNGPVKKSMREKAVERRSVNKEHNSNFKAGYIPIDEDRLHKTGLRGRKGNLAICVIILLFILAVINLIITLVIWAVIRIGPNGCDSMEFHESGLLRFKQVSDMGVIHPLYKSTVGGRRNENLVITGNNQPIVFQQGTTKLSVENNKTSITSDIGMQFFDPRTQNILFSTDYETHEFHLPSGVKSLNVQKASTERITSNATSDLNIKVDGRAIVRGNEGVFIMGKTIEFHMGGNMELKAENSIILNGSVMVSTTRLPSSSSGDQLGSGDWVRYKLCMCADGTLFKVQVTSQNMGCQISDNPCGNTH

# Variants of: B1
# procedure summary: SGCB cell-surface expression functional score (HA stain, bin4 vs bin1, normalised to synonymous) (log10 ratio); higher = more cell-surface SGCB (functional)
So basically: SGCB cell-surface expression functional score (log10) at -0.3 or higher? That is class 1. Lower than -0.3? That is class 0.

Enquiry: Record N158C ; criterion: SGCB cell-surface expression functional score (log10) no lower than -0.3. Met?
Return: class 1

Enquiry: Given the entry D98L , answer whether its SGCB cell-surface expression functional score (log10) meets or surpasses -0.3.
Return: class 1

Enquiry: Decide: is the reported value of SGCB cell-surface expression functional score (log10) for R267M equal to or greater than -0.3?
Return: class 0

Enquiry: Given the entry Q308I , answer whether its SGCB cell-surface expression functional score (log10) meets or surpasses -0.3.
Return: class 1

Enquiry: # check: SGCB cell-surface expression functional score (log10) of D281H is greater than or equal to -0.3
Return: class 0

Enquiry: Item T182Q with SGCB cell-surface expression functional score (log10) of -0.3 or above?
Return: class 0

Enquiry: Test whether the variant G167D records SGCB cell-surface expression functional score (log10) of -0.3 or higher.
Return: class 0

Enquiry: Given the entry G96T , answer whether its SGCB cell-surface expression functional score (log10) meets or surpasses -0.3.
Return: class 0

Enquiry: Determine whether measured SGCB cell-surface expression functional score (log10) meets or exceeds -0.3 for T163A
Return: class 0

Enquiry: Determine whether measured SGCB cell-surface expression functional score (log10) meets or exceeds -0.3 for L277Y
Return: class 1

Enquiry: Is it the case that K25N has SGCB cell-surface expression functional score (log10) reaching or exceeding -0.3?
Return: class 1

Enquiry: Hello, I need to know if I218W has measured SGCB cell-surface expression functional score (log10) not below -0.3. Thanks!
Return: class 1

Enquiry: Would you say T150M shows SGCB cell-surface expression functional score (log10) at minimum -0.3?
Return: class 0

Enquiry: Is reported SGCB cell-surface expression functional score (log10) greater than or equal to -0.3 here: G93I
Return: class 0
